# measured_on: T1, human Trophoblast cell surface antigen 2 (TROP2) (human, UniProt P09758 27-274, limits assumed)
# T1 construct: Analyte in the SPR experiments and immunogen; also called human TROP2
# T1 sequence: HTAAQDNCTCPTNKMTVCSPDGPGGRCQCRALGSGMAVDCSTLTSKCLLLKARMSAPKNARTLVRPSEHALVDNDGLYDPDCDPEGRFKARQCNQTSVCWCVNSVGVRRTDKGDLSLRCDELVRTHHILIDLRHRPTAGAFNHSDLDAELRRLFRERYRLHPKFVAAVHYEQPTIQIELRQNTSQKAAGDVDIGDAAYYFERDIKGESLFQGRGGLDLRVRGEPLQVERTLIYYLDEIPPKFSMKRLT
# experimental_details: SPR affinity ranking, human TROP2
# reported pKd; entries follow
Quick note: pKd values are minus log10 of concentrations in mol/L.

- HC1/LC1 (antibody, human IgG1, kappa, V domains shown, Humanized anti-TROP2 antibody; also called DP002-HC1LC1) VH: QVQLVQSGAEVKKPGASVKVSCKASGYTFTDYSINWVRQAPGQGLEWMGVISTYYGDASYNQKFKGRVTMTTDTSTSTAYMELRSLRSDDTAVYYCARYGDGYNQFDYWGQGTMVTVSS VL: DIVMTQSPDSLAVSLGERATINCRVSESVDSYGNNFMHWYQQKPGQPPKLLIYRASNLESGVPDRFSGSGSGTDFTLTISSLQAEDVAVYYCQQSYEDPYTFGQGTKLEIKR: 10.19
- HC3/LC2 (antibody, human IgG1, kappa, V domains shown, Humanized anti-TROP2 antibody) VH: QVQLVQSGAEVKKPGASVKVSCKASGYTFTDYSINWVRQAPGQRLEWMGVISTYYGDASYNQKFKGRVTITRDTSASTAYMELSSLRSEDTAVYYCARYGDGYNQFDYWGQGTLVTVSS VL: DVVMTQSPLSLPVTLGQPASISCRVSESVDSYGNNFMHWFQQRPGQSPRRLIYRASNLESGVPDRFSGSGSGTDFTLKISRVEAEDVGVYYCQQSYEDPYTFGGGTKVEIKR: 7.98
- HC2/LC5 (antibody, human IgG1, kappa, V domains shown, Humanized anti-TROP2 antibody) VH: QVQLVQSGAEVKKPGASVKVSCKASGYTFTDYSINWVRQAPGQGLEWMGVISTYYGDASYNQKFKGRVTMTRDTSTSTVYMELSSLRSEDTAVYYCARYGDGYNQFDYWGQGTLVTVSS VL: DIQMTQSPSSLSASVGDRVTITCRVSESVDSYGNNFMHWYQQKPGKAPKLLIYRASNLESGVPSRFSGSGSGTDFTFTISSLQPEDIATYYCQQSYEDPYTFGGGTKLEIKR: 10.28
- HC4/LC4 (antibody, human IgG1, kappa, V domains shown, Humanized anti-TROP2 antibody) VH: QVQLVQSGAEVKKPGSSVKVSCKASGYTFTDYSINWVRQAPGQGLEWMGVISTYYGDASYNQKFKGRVTITADESTSTAYMELSSLRSEDTAVYYCARYGDGYNQFDYWGQGTLVTVSS VL: EIVLTQSPATLSLSPGERATLSCRVSESVDSYGNNFMHWYQQKPGQAPRLLIYRASNLESGIPARFSGSGSGTDFTLTISSLEPEDFAVYYCQQSYEDPYTFGGGTKVEIKR: 10.28
- HC2/LC2 (antibody, human IgG1, kappa, V domains shown, Humanized anti-TROP2 antibody) VH: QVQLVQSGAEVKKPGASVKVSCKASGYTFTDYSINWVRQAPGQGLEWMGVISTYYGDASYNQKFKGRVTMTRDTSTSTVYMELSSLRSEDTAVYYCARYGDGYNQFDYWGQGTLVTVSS VL: DVVMTQSPLSLPVTLGQPASISCRVSESVDSYGNNFMHWFQQRPGQSPRRLIYRASNLESGVPDRFSGSGSGTDFTLKISRVEAEDVGVYYCQQSYEDPYTFGGGTKVEIKR: 6.06
- HC4/LC1 (antibody, human IgG1, kappa, V domains shown, Humanized anti-TROP2 antibody) VH: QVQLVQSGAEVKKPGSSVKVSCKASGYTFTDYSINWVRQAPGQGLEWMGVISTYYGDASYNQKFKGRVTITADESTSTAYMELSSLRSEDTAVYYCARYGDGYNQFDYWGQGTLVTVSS VL: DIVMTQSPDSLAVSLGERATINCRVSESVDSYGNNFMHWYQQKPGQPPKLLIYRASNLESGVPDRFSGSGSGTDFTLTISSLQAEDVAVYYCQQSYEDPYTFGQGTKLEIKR: 10.34
- HC5/LC3 (antibody, human IgG1, kappa, V domains shown, Humanized anti-TROP2 antibody) VH: EVQLVQSGAEVKKPGESLKISCKGSGYTFTDYSINWVRQMPGKGLEWMGVISTYYGDASYNQKFKGQVTISADKSISTAYLQWSSLKASDTAMYYCARYGDGYNQFDYWGQGTLVTVSS VL: DIVMTQSPLSLPVTPGEPASISCRVSESVDSYGNNFMHWYLQKPGQSPQLLIYRASNLESGVPDRFSGSGSGTDFTLKISRVEAEDVGVYYCQQSYEDPYTFGGGTKVEIKR: 9.74
- HC3/LC5 (antibody, human IgG1, kappa, V domains shown, Humanized anti-TROP2 antibody) VH: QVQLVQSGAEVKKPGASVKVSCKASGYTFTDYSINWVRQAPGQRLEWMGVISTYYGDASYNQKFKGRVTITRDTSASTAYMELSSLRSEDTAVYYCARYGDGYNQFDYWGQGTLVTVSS VL: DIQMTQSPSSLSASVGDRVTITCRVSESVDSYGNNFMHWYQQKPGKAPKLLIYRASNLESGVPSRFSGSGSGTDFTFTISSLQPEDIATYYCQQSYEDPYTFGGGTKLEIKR: 9.94

Request: May I ask what pKd has been recorded for HC4/LC2 (antibody, human IgG1, kappa, V domains shown, Humanized anti-TROP2 antibody) VH: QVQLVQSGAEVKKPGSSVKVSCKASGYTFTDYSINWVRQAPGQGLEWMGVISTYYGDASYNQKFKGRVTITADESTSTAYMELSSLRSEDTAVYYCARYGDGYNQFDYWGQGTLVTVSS VL: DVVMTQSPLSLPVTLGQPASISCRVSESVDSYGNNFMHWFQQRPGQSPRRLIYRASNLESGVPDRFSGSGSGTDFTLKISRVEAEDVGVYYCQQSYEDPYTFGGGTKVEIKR ?
Result: 8.27

Request: May I ask what pKd has been recorded for HC1/LC3 (antibody, human IgG1, kappa, V domains shown, Humanized anti-TROP2 antibody) VH: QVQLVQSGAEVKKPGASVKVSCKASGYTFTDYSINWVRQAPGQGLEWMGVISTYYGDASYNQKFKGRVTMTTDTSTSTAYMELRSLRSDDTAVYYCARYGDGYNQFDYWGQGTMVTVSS VL: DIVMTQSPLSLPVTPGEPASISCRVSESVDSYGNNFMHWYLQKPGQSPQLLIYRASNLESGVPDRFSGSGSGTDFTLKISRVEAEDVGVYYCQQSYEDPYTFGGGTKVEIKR ?
Result: 9.92
